Data provenance is patent US20250042994A1.

# reported Maximum mean fluorescence intensity; entries follow
Biological target: T1, human CD19 on Raji cells (human, UniProt P15391 20-556)
T1 construct: whole, on cells
T1 sequence (looked up): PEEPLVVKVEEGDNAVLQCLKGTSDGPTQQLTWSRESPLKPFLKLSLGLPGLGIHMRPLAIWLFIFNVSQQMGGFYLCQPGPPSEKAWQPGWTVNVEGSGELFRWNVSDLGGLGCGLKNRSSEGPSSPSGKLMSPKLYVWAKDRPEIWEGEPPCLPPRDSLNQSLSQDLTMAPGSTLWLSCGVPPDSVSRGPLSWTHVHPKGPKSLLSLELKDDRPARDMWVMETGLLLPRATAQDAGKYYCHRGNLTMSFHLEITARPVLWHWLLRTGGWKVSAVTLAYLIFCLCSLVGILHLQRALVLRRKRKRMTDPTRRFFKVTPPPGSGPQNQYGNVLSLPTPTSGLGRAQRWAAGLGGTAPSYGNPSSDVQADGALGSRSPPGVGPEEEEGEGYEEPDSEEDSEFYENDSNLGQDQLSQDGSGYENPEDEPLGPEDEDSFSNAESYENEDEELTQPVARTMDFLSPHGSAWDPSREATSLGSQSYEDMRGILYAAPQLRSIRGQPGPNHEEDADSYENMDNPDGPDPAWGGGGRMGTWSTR
Assay: FACS on Raji cells
Form: value (number only, do not type unit).

{"Binder": "F3.81.2 (antibody, human IgG1, V domains shown, human-murine chimeric antibody, human IgG1) VH: QVQLQQPGAELVMPGASVKLSCKASAYTFTNYWMHWVKQRPGHGLEWIGEIDPSDSYTDYNQNFKAKATLTVDKSSSTAYMQLSSLTSEDSAVYYCARLMGRYFDVWGTGTTVTVSS VL: DIVMTQSHKFMSTSVGDRVSITCKASQDVSAAVAWYQQKPGQSPKLLINSASYRYTGVPDRFTGSGSGTDFTFTISSVQAEDLAVYYCQQHYSTPLTFGAGTKLELR", "Reported Measurement": 31300}

Incoming: For F5.10.6 (antibody, human IgG1, V domains shown, human-murine chimeric antibody, human IgG1) VH: DVQLQESGPGLVKPSQSLSLTCSVTDYSITSGYYWTWIRQFPGNKLEWMGYISYDGSTNYNPSLKNRFSITRDTSKNQFFLKLNSVIIEDTATYYCARDRMSTTWYFDVWGTGTTVTVSS VL: DIVLTQSPASLAVSLGQRATISCRASESVDNYGISFMHWYQQKPGQPPKLLIYRASKTESGIPARFSGSGSRTDFTLTINPVETDDVATYYCQQSNKYPRTFGGGTKVEIK , what is its reported Maximum mean fluorescence intensity?
Outgoing: 22100

Incoming: What would you report for F4.82.11 (antibody, human IgG1, V domains shown, human-murine chimeric antibody, human IgG1) VH: QVTLKESGPGILQASQTLSLTCSFSGFSLSTFGIGVGWVRQPSGKGLEWLAHIWWNDNKFFNTTLKNRLTLSKDPSNNQVFLKIASVDTADTATYYCARSRSALITTGLYAMDYWGQGTSVTVSS VL: DIQMTQTPSSLSASLGDRVTISCRSSQDISNYVNWYQQKPDGTVKVLINYTSRLHSGVPSRFSGSGSGTDYSLTISNLEQEDIASYFCQQGFTLPYTFGGGTKLEIK ?
Outgoing: 16600

Incoming: What would you report for F3.3.10 (antibody, human IgG1, V domains shown, human-murine chimeric antibody, human IgG1) VH: DVQLQESGPGLAKLSQSLSLTCSVTGYSITSGYYWNWIRQFPGNKLEWMGHISYDGNNNYNPSLKNRISITRDTSKNQFFLKLNSVTTEDTATYYCARENYSNYYFDYWGQGTTLTVSS VL: DIVLTQSPASLAVSLGQRATISCRASQSVSKSSYTYIHWYQQKPGQPPKLLIKYASILQSGVPARFSGSGSGTDFTLNFHPVEEEDTATYYCQHSWEIPYTFGGGTKLEIK ?
Outgoing: 29700

Incoming: What would you report for F4.37.6 (antibody, human IgG1, V domains shown, human-murine chimeric antibody, human IgG1) VH: QVQLQQSGAELARPGASVKLSCKASGYTFTSFWMQWLKQRPGQGLEWIGTIYPGDGDTRYTQKFKGKATLTADKSSNTAYMQLSSLASEDSAVYYCARGALSNYGGFAYWGQGTLVTVSA VL: NIVLTQSPASLAVSLGQRATISCRASESVDSYGHSFMHWYQQKPGQPPKLLIYLASNLESGVPARFSGSGSRTDFTLTIDPVEADDAATYYCQQNNEDPWTFGGGTKLEIK ?
Outgoing: 24600
